- ASSAY_SUMMARY: Prodrug conversion in dog liver assessed as 1-((2R,3R,4R,5R)-3-bromo-3-chloro-4-hydroxy-5-(hydroxymethyl)tetrahydrofuran-2-yl)pyrimidine-2,4(1H,3H)-dione level at 5 mg/kg, po after 4 hrs
- Assay type: ADME, organism-based, Canis lupus familiaris
- STUDY_CONDITIONS: in vivo
TEST_READOUT: Drug metabolism (µg/g)

For orientation, consider the following solved cases.
CCOC(=O)[C@H](C)NP(=O)(OC[C@H]1O[C@@H](n2ccc(=O)[nH]c2=O)[C@](Cl)(Br)[C@@H]1O)Oc1ccccc1 (stereo partly drawn) = 0.821
CC(C)OC(=O)[C@H](C)N[P@](=O)(OC[C@H]1O[C@@H](n2ccc(=O)[nH]c2=O)[C@](Cl)(Br)[C@@H]1OC(=O)[C@@H](N)C(C)C)Oc1ccccc1 = 0.341
CC(C)OC(=O)C(C)(C)NP(=O)(OC[C@H]1O[C@@H](n2ccc(=O)[nH]c2=O)[C@](Cl)(Br)[C@@H]1O)Oc1ccccc1 (stereo partly drawn) = 0.252

(1) COCC(C)OC(=O)[C@H](C)NP(=O)(OC[C@H]1O[C@@H](n2ccc(=O)[nH]c2=O)[C@](Cl)(Br)[C@@H]1O)Oc1ccccc1 (stereo partly drawn)
(2) CC(C)OC(=O)[C@H](C)N[P@](=O)(OC[C@H]1O[C@@H](n2ccc(=O)[nH]c2=O)[C@](Cl)(Br)[C@@H]1O)Oc1ccccc1
(3) CC(C)OC(=O)[C@H](C)N[P@@](=O)(OC[C@H]1O[C@@H](n2ccc(=O)[nH]c2=O)[C@](Cl)(Br)[C@@H]1O)Oc1ccccc1
Hey, can you sort those compounds up there by Drug metabolism, smallest first? Please list the labels in the order you were asked to rank them.
1, 3, 2
